Read-out: E-selectin (Homo sapiens)
Assay: BSK_3C_Eselectin: BioMAP Diversity Plus: 3C Assay for Eselectin Biomarker Activity (AID 2283015)
Details: primary human endothelial cells (HUVEC); actives raise or lower the signal
The source made the active and inactive calls. Rule for the calls: active = hit-call score of the fitted dose curve at least 0.9, where 1 is the maximum; inactive = score below 0.9.
# valid calls are yes (1) for active, no (0) for inactive; nothing else

Query: Call for entry O=C(O)c1ccccc1C(c1ccc(O)cc1)c1ccc(O)cc1 :
Reply: no (0)

Query: Hey, what did the test say about CC#C[C@]1(O)CC[C@H]2[C@@H]3CCC4=CC(=O)CCC4=C3[C@@H](c3ccc(N(C)C)cc3)C[C@@]21C ?
Reply: yes (1)

Query: For CCCOc1sc(C(=O)N2CCC(c3cc(CN)ccc3F)CC2)c(C)c1Br , which call appears in the assay record?
Reply: yes (1)

----------
Target: Bile acid receptor (Homo sapiens) (UniProt Q96RI1)
Sequence (Q96RI1 whole entry, looked up): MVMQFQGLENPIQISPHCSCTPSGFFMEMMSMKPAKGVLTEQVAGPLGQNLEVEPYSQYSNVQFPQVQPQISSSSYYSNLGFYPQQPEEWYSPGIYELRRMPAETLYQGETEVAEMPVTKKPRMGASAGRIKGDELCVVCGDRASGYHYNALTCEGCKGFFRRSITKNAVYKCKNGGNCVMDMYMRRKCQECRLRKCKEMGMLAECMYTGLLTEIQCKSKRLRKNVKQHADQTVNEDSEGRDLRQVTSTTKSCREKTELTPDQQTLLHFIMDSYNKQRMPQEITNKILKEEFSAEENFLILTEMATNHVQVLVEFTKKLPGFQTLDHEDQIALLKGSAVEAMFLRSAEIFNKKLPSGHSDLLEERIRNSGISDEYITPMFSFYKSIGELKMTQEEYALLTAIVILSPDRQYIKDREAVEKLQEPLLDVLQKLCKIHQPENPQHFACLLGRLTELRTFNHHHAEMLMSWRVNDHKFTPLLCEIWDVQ
Test: NVS_NR_hFXR_Antagonist: NovaScreen (NVS) Nuclear Receptor Binding Assay for human Farnesoid X Receptor Antagonism (FXR) (AID 2283350)
Results filed as inconclusive are left out. The source made the active and inactive calls. Rule for the calls: active = hit-call score of the fitted dose curve at least 0.9, where 1 is the maximum; inconclusive = response in the unintended direction; inactive = score below 0.9.
Allowed answers: true = active, false = inactive

Query: Dear all, I need the recorded test outcome for CC[C@H](c1ccc(O)cc1)[C@@H](CC)c1ccc(O)cc1 , thank you.
Reply: true

Query: Hi, do you know how c1ccc2cc3c(ccc4ccccc43)cc2c1 came out in this test?
Reply: false

Query: Called result for O=C(OCCOCCOC(=O)c1ccccc1)c1ccccc1
Reply: false

Query: recorded result category for CCCCC(CC)COC(=O)CCCCC(=O)OCC(CC)CCCC (centres undefined) in this test
Reply: false

----------
Read-out: CYP4A11 (gene 1579)
Assay: LTEA_HepaRG_CYP4A11: Life Technologies and Expression Analysis (LTEA) Assay for CYP4A11 using HepaRG (AID 2283486)
Details: mRNA level, 48 h; actives raise or lower the signal
Calls of active or inactive are those of the source. How the source made its calls: active means hit-call score of the fitted dose curve at least 0.9, where 1 is the maximum; inactive means score below 0.9.
Log the outcome using a class from active, inactive

Query: I would be grateful if you could indicate the recorded call for CCOC(=O)CC(O)(CC(=O)OCC)C(=O)OCC .
Reply: inactive

Query: # lookup: test call for c1ccc2c(c1)ccc1ccccc12
Reply: inactive

Query: Just curious, what result did CCc1nn(C2CCCCC2)c2cc(C3(C#N)CCC(C(=O)O)CC3)ccc12 (stereo unspecified) get here?
Reply: active

Query: What call does the record list for CN1CCC[C@H]1c1cccnc1 ?
Reply: inactive

Query: Lab log entry: O=C(OCCOCCOC(=O)c1ccccc1)c1ccccc1 — outcome as called in the assay?
Reply: inactive

Query: Please state the recorded outcome for this molecule: CC(=O)CC(C)(C)O
Reply: inactive

Query: Which result was noted for this molecule in the test: Oc1cccc(O)c1
Reply: inactive

Query: Hello, I am checking results. What call was entered for CCCCOCCO ?
Reply: inactive

Query: Which outcome was entered for the molecule O=C(O)Cc1cc(I)c(Oc2cc(I)c(O)c(I)c2)c(I)c1 in this test?
Reply: active

Query: Which outcome was entered for the molecule CCCOC(=O)c1ccc(O)cc1 in this test?
Reply: inactive

Query: Hi, sorry to bother you, what did the test record for CC(O)CO (stereo unspecified) ?
Reply: inactive

----------
Assay: Tanguay_ZF_120hpf_CFIN_legacy: (Legacy) Oregon State University Tanguay Lab 120 Hour Post-fertilization zebrafish Assay for Caudal Fin Malformation (AID 2283649)
Inconclusive results are not listed. Active and inactive are the calls of the source. Rule for the calls: active = hit-call score of the fitted dose curve at least 0.9, where 1 is the maximum; inconclusive = response in the unintended direction; inactive = score below 0.9.
Give your call using only these classes: active, inactive

Query: Could you kindly confirm the outcome this assay logged for ClC1=C(Cl)C(Cl)(Cl)C(Cl)=C1Cl ?
Reply: inactive

Query: Call for entry CCc1ccc(CCOc2ccc(CC3SC(=O)NC3=O)cc2)nc1 (stereo unspecified) :
Reply: inactive

Query: Hey, what did the test say about CC(C)(C)c1cc(C(C)(C)C)c(O)c(C(C)(C)C)c1 ?
Reply: inactive

Query: Kindly provide the recorded test outcome for the following compound: CCc1nn(C2CCCCC2)c2cc(C3(C#N)CCC(C(=O)O)CC3)ccc12 (stereo unspecified)
Reply: active

Query: State the result this test recorded for CCC(C)(C)C1CCC(O)CC1 (stereo unspecified) .
Reply: inactive

Query: I would be grateful if you could indicate the recorded call for C=C(C)C(=O)OCCC(F)(F)C(F)(F)C(F)(F)C(F)(F)C(F)(F)C(F)(F)F .
Reply: inactive
